Provide the reported solubility kinetic of each item.
# measurement parameters: buffer; pH 7.4; 200.0 µM
Number in µg/mL, nothing else.

*Q* Could you share which solubility kinetic value was measured for `CCOC(=O)c1c(-c2ccc(C)o2)csc1NC(=O)CN1CCC(C(N)=O)CC1` ?
*A* 31

*Q* Entry NC(=O)CC(NSc1ccccc1[N+](=O)[O-])C(=O)O (stereo not given) has what solubility kinetic?
*A* 36.9

*Q* What value of solubility kinetic has been recorded for this entry: `O=C1C=C(N2CCCCCC2)C2(CCCCC2)O1`
*A* 37.1

*Q* So what's the measured solubility kinetic for this one? `c1ccc(CN2CCN(c3ncccn3)CC2)cc1`
*A* 24.5

*Q* Quick one: solubility kinetic for `Cc1ccc(/C=C(\C#N)C(=O)NCc2ccco2)o1` ?
*A* 9

*Q* Would you mind telling me what solubility kinetic value was observed for OCC1CCCN(c2ncnc3scc(-c4ccccc4)c23)C1 (stereo not given) ?
*A* 47.4

*Q* For `Cc1ccc(C(=O)NCC(=O)OCC(=O)c2c(N)n(C)c(=O)n(C)c2=O)cc1C` , what is its reported solubility kinetic?
*A* 7.3

*Q* # query: solubility kinetic of entry COc1ccc(NC(=O)C2CC(c3ccccc3Cl)=NO2)cc1 (stereo not given)
*A* 37.6

*Q* Would you mind telling me what solubility kinetic value was observed for `Cc1ccc(NC(=O)C=NOCC(=O)Nc2cc(C)cc(C)c2)cc1` ?
*A* 3.5

*Q* Recorded solubility kinetic for `COc1cc(NC(=O)C(C)C)ccc1NC(=O)c1cc2ccccc2o1` , please?
*A* 0.7

*Q* Param item = CCc1ccc(N2CC(C(=O)Nc3ccc(F)cc3)CC2=O)cc1 (stereo not given) ; retrieve measured solubility kinetic.
*A* 0.8

*Q* # solubility kinetic lookup, item `N/C(=N\OC(=O)CC1CCCCC1)c1ccc(Cl)cc1`
*A* 0.9

*Q* Which solubility kinetic value belongs to CC12CS(=O)(=O)CC1SC(=S)N2Cc1ccccc1 (stereo not given) ?
*A* 44.2

*Q* Quick one: solubility kinetic for `Cc1ccc(Nc2c3c(nc4ccccc24)CCC3)cc1.Cl` ?
*A* 33.4

*Q* For the molecule `O=C(Sc1ccc(Cl)cc1)c1ccccn1` , what solubility kinetic is on record?
*A* 1.7

*Q* Which value of solubility kinetic has been reported for `Clc1cccc(CN2CCN(c3ncccn3)CC2)c1Cl` in the records?
*A* 11.1

*Q* Quick check: solubility kinetic of `CC1(C)C(=O)Nc2ccccc2N1C(=O)c1ccc([N+](=O)[O-])cc1` ?
*A* 2.3

*Q* Which solubility kinetic is reported for this molecule? CC1Cc2ccccc2N1C(=O)/C=C/c1cccc(F)c1 (stereo not given)
*A* 6.2

*Q* I'd like to know its solubility kinetic. The molecule in question is Cc1ccc(OC(C)C(=O)N2CC(=O)Nc3ccccc32)c(C)c1 (stereo not given)
*A* 3

*Q* Reported solubility kinetic, molecule CC(c1ccccc1)N1C(=O)/C(=C/c2ccncc2)SC1=S (stereo not given) : ____
*A* 1.3

*Q* Item under review: `CC(C)C(=O)NC(=O)COC(=O)/C=C/c1cccs1` . Reported solubility kinetic?
*A* 21.6

*Q* What does the record list as solubility kinetic for `COc1ccc(-n2c(=S)[nH]c3ncccc3c2=O)cc1` ?
*A* 1.5

*Q* Could you share which solubility kinetic value was measured for `COc1ccc(/C=C2\SC(N)=NC2=O)cc1Cl` ?
*A* 3.1

*Q* Would you kindly share the measured solubility kinetic for Cc1ccc(C)c(NC(=O)C(CC(=O)O)C2CCCO2)c1 (stereo not given) ?
*A* 40.1

*Q* // lookup solubility kinetic for `COc1ccc(CCC(=O)Nc2ccc3c(c2)OCO3)cc1OC`
*A* 35.5

*Q* Which measured solubility kinetic value corresponds to `O=C(Nc1ccc(NC(=O)C2CCCCC2)nc1)c1cccc(F)c1` ?
*A* 1.2

*Q* Can you look up the measured solubility kinetic of `COc1cc(CN2CCCCCC2)cc(OC)c1` for me?
*A* 30.6

----------
What solubility kinetic was measured for each of the following?
# measurement parameters: buffer; pH 7.4; 200.0 µM

*Q* Would you mind telling me what solubility kinetic value was observed for `O=C(NOCc1ccccc1)c1ccc([N+](=O)[O-])cc1` ?
*A* > 40.8 µg/mL

*Q* State the recorded solubility kinetic for this entry: `CCc1cc2c(N[C@@H](Cc3ccccc3)C(=O)O)ncnc2s1`
*A* > 49.1 µg/mL

*Q* Which solubility kinetic value is on record for `Nc1ncc2[nH]cnc2n1` ?
*A* > 20.3 µg/mL

----------
# measurement parameters: buffer; pH 7.4; 200.0 µM
Assignment: determine reported solubility kinetic for the given molecules.
Kindly provide the numeric value in µg/mL only, without the unit symbol.

*Q* Returns the measured solubility kinetic for the input molecule. Input: `COc1cc2c(cc1OC)CN(Cc1ccccc1)CC2`
*A* 35.6

*Q* What measured solubility kinetic goes with O=C(Cc1ccccc1)NCC1OCCc2ccccc21 (stereo not drawn) ?
*A* 30.9

*Q* Name the recorded solubility kinetic for `Cc1cccc(Nc2c3c(nc4ccccc24)CCC3)c1.Cl` .
*A* 44.9

*Q* I would be grateful if you could share the reported solubility kinetic for `O=C(NCc1ccccc1Cl)c1ccc2ccccc2n1` .
*A* 6.2

*Q* Requested read-out: solubility kinetic. Entry: `CCCCn1c(O)c(C(CC)=NCCCn2ccnc2)c(=O)[nH]c1=O`
*A* 48.2

*Q* For `O=C(Nc1ncccn1)c1ccc([N+](=O)[O-])cc1Cl` , what is its reported solubility kinetic?
*A* 27.8

*Q* Could you share which solubility kinetic value was measured for `N#CN/C(=N\S(=O)(=O)c1ccccc1)c1ccccc1` ?
*A* 32.3

*Q* Item `CC(C)(C)C(=O)c1cn(Cc2ccccc2)c2ccccc12` has what recorded solubility kinetic?
*A* 1.5

*Q* Looking for the measured solubility kinetic of `O=C(COC(=O)c1cccc(OC(F)F)c1)Nc1ncccn1` , can you help?
*A* 30.2

*Q* Look up solubility kinetic: `COc1ccc(NS(=O)(=O)c2ccc(C(=O)N3CCN(c4ccc(F)cc4)CC3)cc2)cc1`
*A* 12.1

*Q* // query solubility kinetic value for entry `CCCCNC(=S)N1CCC(Cc2ccccc2)CC1`
*A* 6.2

*Q* Entry `O=C(NCCOc1ccc(Cl)cc1)c1ccc2c(c1)OCCO2` : reported solubility kinetic = ?
*A* 6.3

*Q* Need solubility kinetic, item CC(=O)Nc1ccc(NC(=O)C(C)OC(=O)c2ccc(S(=O)(=O)N3CCCCC3)cc2)cc1 (stereo not drawn)
*A* 6.4

*Q* Which solubility kinetic is reported for this molecule? CNC(=S)N1CCn2cccc2C1c1ccc(F)cc1 (stereo not drawn)
*A* 40.8

*Q* If you can, please state the reported solubility kinetic value of `CCN(c1ccccc1)S(=O)(=O)c1ccc(OC)c(NC(=O)c2ccc(=O)[nH]c2)c1` .
*A* 24.2

*Q* Could you tell me which solubility kinetic is on file for `CC(=O)Nc1ccc(NC(=O)c2sc(-c3ccccc3)nc2C)cc1` ?
*A* 0.9

*Q* Suppose we examine the molecule `CCc1nc2sc3c(c2c(=S)[nH]1)CC(C)(C)OC3` ; what solubility kinetic value has been reported?
*A* 1.9

*Q* // lookup solubility kinetic for `Cc1cccc(C(=O)NCC(=O)OCC(=O)N2CCCCC2)c1`
*A* 46

----------
# measurement parameters: buffer; pH 7.4; 200.0 µM
metric: solubility kinetic (µg/mL)
Note: unit µg/mL is implicit; provide only the numeric part.

*Q* Bench note: what solubility kinetic did `Cc1ccc(NC(=O)C[n+]2cc(-c3ccccc3)n3c2CCC3)c(C)c1.[Cl-]` show?
*A* 55.4

*Q* Sample Cc1ccc(N2CCN(C(=O)Nc3cccc([N+](=O)[O-])c3)CC2C)cc1 (centres undefined) — what was its solubility kinetic?
*A* 22

*Q* Please report the recorded solubility kinetic for C=CCSc1nc2ccccc2c(=O)n1C1CCOC(C)(C)C1 (centres undefined) .
*A* 8.6

*Q* Need solubility kinetic of `O=C(c1ccc(NC(=S)NCc2ccco2)cc1)N1CCOCC1` , thanks.
*A* 41.6

----------
# measurement parameters: buffer; pH 7.4; 200.0 µM
metric: solubility kinetic

*Q* Look up solubility kinetic: CCOc1ncccc1C(=O)NCC(c1ccccc1)N(C)C (stereo unspecified)
*A* > 47 µg/mL

*Q* Dear colleague, I am looking for the recorded solubility kinetic of the following molecule: `O=C(N/N=C/c1c[nH]c2ccccc12)c1ccccc1O`
*A* > 41.9 µg/mL

*Q* For the molecule `NC(=S)NNc1cccc2cccnc12` , what solubility kinetic is on record?
*A* > 32.7 µg/mL

*Q* Looking for the measured solubility kinetic of `Cc1cccc(OCC(=O)NC2CC(C)(C)NC(C)(C)C2)c1` , can you help?
*A* > 45.7 µg/mL

*Q* Field request: solubility kinetic | item: `O=C(CCS(=O)(=O)c1ccccc1)Nc1ccccn1`
*A* > 43.6 µg/mL

*Q* Which solubility kinetic is listed for CC(NC(=S)NC1CCC(C(C)(C)C)CC1)c1ccccc1 (stereo unspecified) ?
*A* < 0.3 µg/mL
